Reference source for all entries: ChEMBL document CHEMBL2029267

- targetOfAssay: Beta-galactosidase (Homo sapiens)
- protocolText: Inhibition of human lysosomal beta-galactosidase using 4-methylumbelliferyl beta-Dgalactopyranoside as substrate at 200 uM by fluorimetric analysis
The source made the active and inactive calls. No cut-off for these calls is given here.

compoundString | inhibition
CCCCCCSCC[C@H]1NC[C@@H](O)[C@H](O)[C@H]1O.Cl | inactive
O=C(CCCSCC[C@H]1NC[C@@H](O)[C@H](O)[C@H]1O)N1CCOCC1 | inactive
CCCCSCC[C@H]1NC[C@@H](O)[C@H](O)[C@H]1O | inactive
CC(C)(C)SCC[C@H]1NC[C@@H](O)[C@H](O)[C@H]1O | inactive
O[C@@H]1[C@@H](O)[C@@H](CCSCc2ccccc2)NC[C@H]1O | inactive
CCSCC[C@H]1NC[C@@H](O)[C@H](O)[C@H]1O | inactive
O[C@@H]1[C@@H](O)[C@@H](CCSC2CCCCC2)NC[C@H]1O | inactive
CC[C@H]1NC[C@@H](O)[C@H](O)[C@H]1O | inactive
O[C@@H]1[C@@H](O)[C@@H](CCSCCc2ccccc2)NC[C@H]1O | inactive
O[C@H]1[C@H](O)CNC[C@@H]1O | inactive
C=C[C@H]1NC[C@@H](O)[C@H](O)[C@H]1O | inactive
